biological target: Induced myeloid leukemia cell differentiation protein Mcl-1 (Homo sapiens, UniProt Q07820); test: Inhibition of fluorescein-labeled Bid BH3 peptide (79 to 99 residues) binding to His-tagged MCL1 (171 to 327 residues) (unknown origin) expressed in Escherichia coli Bl21(DE3) cells incubated for 3 hrs by fluorescence polarization assay
Sequence (Q07820 whole entry, the tested form may be a part): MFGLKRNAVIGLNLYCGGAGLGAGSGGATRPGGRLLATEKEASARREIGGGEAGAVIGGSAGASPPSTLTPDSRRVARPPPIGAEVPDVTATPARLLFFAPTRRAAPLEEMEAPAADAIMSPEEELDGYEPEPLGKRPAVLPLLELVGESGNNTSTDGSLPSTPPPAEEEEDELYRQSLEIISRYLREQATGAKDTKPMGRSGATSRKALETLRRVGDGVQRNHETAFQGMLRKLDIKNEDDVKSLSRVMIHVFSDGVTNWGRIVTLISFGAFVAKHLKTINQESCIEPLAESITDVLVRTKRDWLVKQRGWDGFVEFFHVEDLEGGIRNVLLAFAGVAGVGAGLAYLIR
pIC50: −log10 of the molar value.

| structure | target.or.system | pIC50 |
| --- | --- | --- |
| O=C(O)CSc1cc(NS(=O)(=O)c2ccc(-c3ccc(Cl)cc3)cc2)c2ccccc2c1O | Induced myeloid leukemia cell differentiation protein Mcl-1 (Homo sapiens, UniProt Q07820) | 6.77 |
| O=C(O)CSc1cc(NS(=O)(=O)c2ccc(Oc3ccc(F)cc3)cc2)c2ccccc2c1O | Induced myeloid leukemia cell differentiation protein Mcl-1 (Homo sapiens, UniProt Q07820) | 6.77 |
| O=C(O)CSc1cc(NS(=O)(=O)c2ccc(-c3ccc(F)cc3F)cc2)c2ccccc2c1O | Induced myeloid leukemia cell differentiation protein Mcl-1 (Homo sapiens, UniProt Q07820) | 6.77 |

* * *

target: Apoptosis regulator Bcl-2 (Homo sapiens)
Sequence (P10415 whole entry): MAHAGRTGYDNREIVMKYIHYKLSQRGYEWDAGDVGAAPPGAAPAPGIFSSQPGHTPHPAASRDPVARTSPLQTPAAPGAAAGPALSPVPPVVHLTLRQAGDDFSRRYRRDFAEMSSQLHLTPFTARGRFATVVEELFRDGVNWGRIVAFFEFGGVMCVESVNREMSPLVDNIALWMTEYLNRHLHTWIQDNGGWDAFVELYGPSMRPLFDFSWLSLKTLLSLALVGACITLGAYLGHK

| structure | IC50 [nM] |
| --- | --- |
| COC1=CC(c2cc3ccccc3[nH]2)=N/C1=C\c1[nH]c(C)cc1C | 1110 |

* * *

target: Induced myeloid leukemia cell differentiation protein Mcl-1 (Homo sapiens, UniProt Q07820); assay: Inhibition of FAM-labeled Bid BH3 peptide binding to human recombinant MCL1 by fluorescence polarization assay relative to control

| structure | target.or.system | Ki |
| --- | --- | --- |
| CC(C)c1ccccc1Cc1cc(C(=O)Nc2ccc(S(=O)(=O)c3ccccc3C(C)(C)C)cc2)c(O)c(O)c1O | Induced myeloid leukemia cell differentiation protein Mcl-1 (Homo sapiens, UniProt Q07820) | < 300 nM |

* * *

molecular target: Induced myeloid leukemia cell differentiation protein Mcl-1 (Homo sapiens, UniProt Q07820); assay: Inhibition of FITC-labeled Bid BH3 peptide binding to human GST-tagged MCL1 lacking C-terminal transmembrane domain expressed in Escherichia coli XL-1 Blue cells preincubated for 10 mins followed by FITC-labeled Bid BH3 peptide addition measured after 20 mins by fluorescence polarization assay
value.type: IC50 (nM)

| structure | target.or.system | value.type | units.symbol | reported.value |
| --- | --- | --- | --- | --- |
| COC1=CC(c2cc3ccccc3[nH]2)=N/C1=C\c1[nH]c(C)cc1C | Induced myeloid leukemia cell differentiation protein Mcl-1 (Homo sapiens, UniProt Q07820) | IC50 | nM | 2900 |

* * *

target: Induced myeloid leukemia cell differentiation protein Mcl-1 (Homo sapiens, UniProt Q07820); experiment: Inhibition of 5-FAM-labeled Bid BH3 peptide binding to MCL1 (unknown origin) by fluorescence polarization assay
pKi: −log10 of the molar value.
value.type: pKi

| structure | value.type | reported.value |
| --- | --- | --- |
| O=C(Cc1cc(O)c(O)c(O)c1)NCc1ccc(C(=O)N2CCN(Cc3ccccc3-c3ccccc3)CC2)cc1 | pKi | 6.74 |

* * *

target: UniProt P10415; test: Inhibition of FAM-labeled Bid BH3 peptide binding to human recombinant BCL2 by fluorescence polarization assay relative to control
pKi: −log10 of the molar value.
value.type: pKi

| structure | reported.value |
| --- | --- |
| CC(C)c1ccccc1Cc1cc(C(=O)Nc2ccc(S(=O)(=O)c3ccccc3C(C)(C)C)cc2)c(O)c(O)c1O | > 6.52 |

Hello, the source for this data is ChEMBL document CHEMBL3817778, in case you need it.
